List of ELISA PD-L1 Fc (RSU) values.
Biological target: T1, recombinant biotinylated PD-L1 (rhPD-L1/Fc Chimera, R&D Systems 156-B7) (human, UniProt Q9NZQ7 19-238, biotinylated (sites not given))
T1 construct: Bought Fc chimera; also called human PD-L1
T1 sequence (Q9NZQ7 19-238, change not shown): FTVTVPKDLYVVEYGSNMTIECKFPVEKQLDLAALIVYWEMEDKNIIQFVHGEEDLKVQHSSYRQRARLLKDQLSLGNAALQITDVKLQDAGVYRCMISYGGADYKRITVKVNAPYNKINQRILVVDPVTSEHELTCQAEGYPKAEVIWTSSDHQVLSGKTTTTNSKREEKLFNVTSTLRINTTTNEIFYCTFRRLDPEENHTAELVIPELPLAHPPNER
Assay: ELISA, lysate on plate-bound antigen
Description: Streptavidin-coated Maxisorp plates (Nunc catalog 436110) were blocked for 1 h in Starting Block T20 (Pierce) and then coated with biotinylated PD-L1 (using same antigen as in panning) or negative controls (an unrelated Fc-fused recombinant protein and human serum albumin) for 1 h. Plates were rinsed with TBST and diluted lysate was applied to plates for 1 h. […]
Write it as a number; the unit RSU goes unstated.

// below: answered binders
Which ELISA PD-L1 Fc (RSU) is reported for this binder? ISOP121BR5P1C6 (designed binder, not shown: small tags and cut ends, FN3 domain; E. coli lysate in the ELISA) LPAPKNLVVSRVTEDSARLSWRKQEQYFDSFLIQYQESEKVGEAIVLTVPGSERSYDLTGLKPGTEYTVSIYGVYSRPKAEFTSNPLSAIFTT
13400

Which ELISA PD-L1 Fc (RSU) is reported for this binder? ISOP194BR9P1A9 (designed binder, not shown: small tags and cut ends, FN3 domain; E. coli lysate in the ELISA) LPAPKNLVVSRVTEDSARLSWFNADEEYFDSFLIQYQESEKVGEAIVLTVPGSERSYDLTGLKPGTEYTVSIYGVYDRKVKFVQSNPLSAIFTT
1.9e+07

Which ELISA PD-L1 Fc (RSU) is reported for this binder? ISOP194BR9P1C8 (designed binder, not shown: small tags and cut ends, FN3 domain; E. coli lysate in the ELISA) LPAPKNLVVSRVTEDSARLSWYFAGELWFDSFLIQYQESEKVGEAIVLTVPGSERSYDLTGLKPGTEYTVSIYGVYQRGYHNWFSNPLSAIFTT
6.11e+06

Which ELISA PD-L1 Fc (RSU) is reported for this binder? ISOP121AR5P1H1 (designed binder, not shown: small tags and cut ends, FN3 domain; E. coli lysate in the ELISA) LPAPKNLVVSRVTEDSARLSWKQATKFVFDSFLIQYQESEKVGEAIVLTVPGSERSYDLTGLKPGTEYTVSIYGVPDWFVLESNPLSAIFTT
1.48e+06

Which ELISA PD-L1 Fc (RSU) is reported for this binder? ISOP121FR5P1H9 (designed binder, not shown: small tags and cut ends, FN3 domain; E. coli lysate in the ELISA) LPAPKNLVVSRVTEDSARLSWTAPDAAFDSFSILYGETAPIGEAIVLTVPGSERSYDLTGLKPGTEYVVYIQGVKGGNYSQPLSAIFTT
1.2e+06

Note: attention shifts to another entry.
Which ELISA PD-L1 Fc (RSU) is reported for this binder? ISOP121AR5P1F3 (designed binder, not shown: small tags and cut ends, FN3 domain; E. coli lysate in the ELISA) LPAPKNLVVSRVTEDSARLSWPFNNYSEHFDSFLIQYQESEKVGEAIVLTVPGSERSYDLTGLKPGTEYTVSIYGVYERKTAFYSNPLSAIFTT
180000
